Biological target: UniProt P30874
Experiment: Hit Hunter cAMP XS+ assay, SST2 activation via Gi (reduction of forskolin-stimulated cAMP)
Type: cell-based
pEC50: −log10 of the molar value. *1 amine or outer side, *2 acyl side, *3 side chain or, on linkers, in order; H or OH if unused. Where a SMILES comes first, the peptide text is derived from it. Side-chain parts run from the residue outwards. [ ]: non-standard residue; d: D form. The star is where a group is joined. Ethylenediamine = C(CN[*:2])N[*:1]; Hyp = O=C(O)[C@@H]1C[C@@H](O)CN1; Phg = N[C@H](C(=O)O)c1ccccc1; CO = O=C([*:1])[*:2]; Bn = c1ccc(C*)cc1
attribute-measured: pEC50

compound	obs-value
NCCCC[C@@H]1NC(=O)[C@@H](Cc2c[nH]c3ccccc23)NC(=O)[C@H](c2ccccc2)NC(=O)[C@@H]2C[C@@H](OC(=O)NCCN)CN2C(=O)[C@H](Cc2ccccc2)NC(=O)[C@H](Cc2ccc(OCc3ccccc3)cc2)NC1=O [pasireotide, reference compound] (cyclo([Hyp]([CO-Ethylenediamine])[Phg][dW]KY(Bn)F))	9.00

* * *

Molecular target: SST2 (Homo sapiens, UniProt P30874)
Sequence (P30874 whole entry): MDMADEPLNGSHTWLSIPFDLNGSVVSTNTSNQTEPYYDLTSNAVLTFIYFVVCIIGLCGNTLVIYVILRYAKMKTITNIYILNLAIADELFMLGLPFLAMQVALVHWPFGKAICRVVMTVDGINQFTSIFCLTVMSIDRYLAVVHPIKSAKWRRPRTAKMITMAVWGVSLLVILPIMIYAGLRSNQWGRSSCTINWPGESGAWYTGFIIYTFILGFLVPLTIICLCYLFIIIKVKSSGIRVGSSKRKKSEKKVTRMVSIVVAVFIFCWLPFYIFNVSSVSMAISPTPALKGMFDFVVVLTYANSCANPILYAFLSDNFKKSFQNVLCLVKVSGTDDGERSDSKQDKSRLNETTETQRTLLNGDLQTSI
Test: Hit Hunter cAMP XS+ assay, SST2 activation via Gi (reduction of forskolin-stimulated cAMP)
Format: cell-based
Conditions: read-out: SST2 (EMax)
*1 amine or outer side, *2 acyl side, *3 side chain or, on linkers, in order; H or OH if unused. Where a SMILES comes first, the peptide text is derived from it. Side-chain parts run from the residue outwards. [ ]: non-standard residue; d: D form. The star is where a group is joined. Ala(piperidin-4-yl) = O=C([C@H](CC1CCN([*:3])CC1)N[*:1])[*:2]; dTrp(5-OMe) = COc1ccc2[nH]cc(C[C@@H](N)C(=O)O)c2c1; X2 = O=C([C@@H]1C[C@@H](Oc2ccncc2)CN1[*:1])[*:2]; Ala(piperazin-1-yl) = N[C@@H](CN1CCNCC1)C(=O)O; Tyr(Ph) = N[C@@H](Cc1ccc(Oc2ccccc2)cc1)C(=O)O; Morpholine(3S-CO) = O=C(O)[C@@H]1COCCN1; Pro(4,4-F2) = O=C(O)[C@@H]1CC(F)(F)CN1; Ethylenediamine = C(CN[*:2])N[*:1]; d(hPhe) = N[C@H](CCc1ccccc1)C(=O)O; Hyp = O=C(O)[C@@H]1C[C@@H](O)CN1; hPhe = N[C@@H](CCc1ccccc1)C(=O)O; 3Pal = N[C@@H](Cc1cccnc1)C(=O)O; Cyclohexylmethyl = C1CCC(C*)CC1; Tic = O=C(O)[C@@H]1Cc2ccccc2CN1; Benzyl(4-Cl) = Clc1ccc(C*)cc1; Phg = N[C@H](C(=O)O)c1ccccc1; CO = O=C([*:1])[*:2]; Bn = c1ccc(C*)cc1
# Emax per record follows
attribute-measured: Emax (%)

compound	obs-value
COc1ccc2[nH]cc(C[C@H]3NC(=O)[C@H](c4ccccc4)NC(=O)[C@@H]4C[C@@H](OC(=O)NCCN)CN4C(=O)[C@H](Cc4ccccc4)NC(=O)[C@H](Cc4ccc(OCc5ccccc5)cc4)NC(=O)[C@H](CC4CCNCC4)NC3=O)c2c1 [Example 5] (cyclo(F[Hyp]([CO-Ethylenediamine])[Phg][dTrp(5-OMe)][Ala(piperidin-4-yl)]Y(Bn)))	97.6
NCCNC(=O)O[C@@H]1C[C@H]2C(=O)N[C@H](CCc3ccccc3)C(=O)N[C@H](Cc3c[nH]c4ccccc34)C(=O)N[C@@H](CC3CCNCC3)C(=O)N[C@@H](Cc3ccc(OCc4ccccc4)cc3)C(=O)N[C@@H](Cc3ccccc3)C(=O)N2C1 [Example 38] (cyclo(F[Hyp]([CO-Ethylenediamine])[d(hPhe)][dW][Ala(piperidin-4-yl)]Y(Bn)))	82.7
NCCNC(=O)O[C@@H]1C[C@H]2C(=O)N[C@@H](CCc3ccccc3)C(=O)N[C@H](Cc3c[nH]c4ccccc34)C(=O)N[C@@H](CN3CCNCC3)C(=O)N[C@@H](Cc3ccc(OCc4ccc(Cl)cc4)cc3)C(=O)N[C@@H](Cc3cccnc3)C(=O)N2C1 [Example 59] (cyclo([3Pal][Hyp]([CO-Ethylenediamine])[hPhe][dW][Ala(piperazin-1-yl)]Y(Benzyl(4-Cl))))	95.7
NCCNC(=O)O[C@@H]1C[C@H]2C(=O)N[C@@H](CCc3ccccc3)C(=O)N[C@H](Cc3c[nH]c4ccccc34)C(=O)N[C@@H](CN3CCNCC3)C(=O)N[C@@H](Cc3ccc(OCc4ccccc4)cc3)C(=O)N3CCC[C@H]3C(=O)N2C1 [Example 37] (cyclo([Hyp]([CO-Ethylenediamine])[hPhe][dW][Ala(piperazin-1-yl)]Y(Bn)P))	75.8
O=C1N[C@@H](Cc2ccc(OCc3ccccc3)cc2)C(=O)N2Cc3ccccc3C[C@H]2C(=O)N2CCOC[C@H]2C(=O)N[C@H](CCc2ccccc2)C(=O)N[C@H](Cc2c[nH]c3ccccc23)C(=O)N[C@H]1CN1CCNCC1 [Example 61] (cyclo([Tic][Morpholine(3S-CO)][d(hPhe)][dW][Ala(piperazin-1-yl)]Y(Bn)))	23.4
NCCNC(=O)O[C@@H]1C[C@H]2C(=O)N[C@@H](CCc3ccccc3)C(=O)N[C@H](Cc3c[nH]c4ccccc34)C(=O)N[C@@H](CN3CCNCC3)C(=O)N[C@@H](Cc3ccc(OCc4ccccc4)cc3)C(=O)N3CC(F)(F)C[C@H]3C(=O)N2C1 [Example 70] (cyclo([Hyp]([CO-Ethylenediamine])[hPhe][dW][Ala(piperazin-1-yl)]Y(Bn)[Pro(4,4-F2)]))	77.9
NCCNC(=O)O[C@@H]1C[C@H]2C(=O)N[C@@H](CCc3ccccc3)C(=O)N[C@H](Cc3c[nH]c4ccccc34)C(=O)N[C@@H](CC3CCNCC3)C(=O)N[C@@H](Cc3ccc(Oc4ccccc4)cc3)C(=O)N[C@@H](Cc3cccnc3)C(=O)N2C1 [Example 67] (cyclo([3Pal][Hyp]([CO-Ethylenediamine])[hPhe][dW][Ala(piperidin-4-yl)][Tyr(Ph)]))	98.3
NCCNC(=O)O[C@@H]1C[C@H]2C(=O)N[C@@H](CCc3ccccc3)C(=O)N[C@H](Cc3c[nH]c4ccccc34)C(=O)N[C@@H](CN3CCNCC3)C(=O)N[C@@H](Cc3ccc(OCC4CCCCC4)cc3)C(=O)N[C@@H](Cc3cccnc3)C(=O)N2C1 [Example 52] (cyclo([3Pal][Hyp]([CO-Ethylenediamine])[hPhe][dW][Ala(piperazin-1-yl)]Y(Cyclohexylmethyl)))	96.8
C[C@@H](O)[C@@H]1NC(=O)[C@H](CCCCN)NC(=O)[C@@H](Cc2c[nH]c3ccccc23)NC(=O)[C@H](Cc2ccccc2)NC(=O)[C@@H](NC(=O)[C@H](N)Cc2ccccc2)CSSC[C@@H](C(=O)N[C@H](CO)[C@@H](C)O)NC1=O [Octreotide]	98.5
NCCNC(=O)O[C@@H]1C[C@H]2C(=O)N[C@@H](CCc3ccccc3)C(=O)N[C@@H](Cc3c[nH]c4ccccc34)C(=O)N[C@@H](CC3CCNCC3)C(=O)N[C@@H](Cc3ccc(OCc4ccccc4)cc3)C(=O)N[C@@H](Cc3ccccc3)C(=O)N2C1 [Example 29] (cyclo(F[Hyp]([CO-Ethylenediamine])[hPhe]W[Ala(piperidin-4-yl)]Y(Bn)))	89.6
O=C1N[C@@H](Cc2ccc(OCc3ccccc3)cc2)C(=O)N[C@@H](Cc2cccnc2)C(=O)N2C[C@H](Oc3ccncc3)C[C@H]2C(=O)N[C@@H](CCc2ccccc2)C(=O)N[C@@H](Cc2c[nH]c3ccccc23)C(=O)N[C@H]1CC1CCNCC1 [Example 23] (cyclo([3Pal][X2][hPhe]W[Ala(piperidin-4-yl)]Y(Bn)))	96.6

* * *

# EC50 per record follows
Target: SST2 (Homo sapiens)
Test: Hit Hunter cAMP XS+ assay, SST2 activation via Gi (reduction of forskolin-stimulated cAMP)
Format: cell-based
Settings: reduction of forskolin-stimulated cAMP; 4-parameter logistic fit; read-out: SST2 pEC50 (converted)
*1 amine or outer side, *2 acyl side, *3 side chain or, on linkers, in order; H or OH if unused. Where a SMILES comes first, the peptide text is derived from it. Side-chain parts run from the residue outwards. [ ]: non-standard residue; d: D form. The star is where a group is joined. Ala(piperidin-4-yl) = O=C([C@H](CC1CCN([*:3])CC1)N[*:1])[*:2]; X2 = O=C([C@@H]1C[C@@H](Oc2ccncc2)CN1[*:1])[*:2]; X8 = COc1cc2c(cc1OC)CN([*:1])[C@H](C(=O)[*:2])C2; Ala(piperazin-1-yl) = N[C@@H](CN1CCNCC1)C(=O)O; Tyr(Ph) = N[C@@H](Cc1ccc(Oc2ccccc2)cc1)C(=O)O; Phe(3-Cl) = N[C@@H](Cc1cccc(Cl)c1)C(=O)O; Phe(3-OMe) = COc1cccc(C[C@H](N)C(=O)O)c1; Phe(4-Cl) = N[C@@H](Cc1ccc(Cl)cc1)C(=O)O; Ethylenediamine = C(CN[*:2])N[*:1]; d(hPhe) = N[C@H](CCc1ccccc1)C(=O)O; Hyp = O=C(O)[C@@H]1C[C@@H](O)CN1; hPhe = N[C@@H](CCc1ccccc1)C(=O)O; 3Pal = N[C@@H](Cc1cccnc1)C(=O)O; Tic = O=C(O)[C@@H]1Cc2ccccc2CN1; Phg = N[C@H](C(=O)O)c1ccccc1; CO = O=C([*:1])[*:2]; Bn = c1ccc(C*)cc1
attribute-measured: EC50 (nM)

molecule	result-qualifier	obs-value
COc1cc2c(cc1OC)CN1C(=O)[C@H](Cc3ccc(OCc4ccccc4)cc3)NC(=O)[C@H](CC3CCNCC3)NC(=O)[C@@H](Cc3c[nH]c4ccccc34)NC(=O)[C@H](CCc3ccccc3)NC(=O)[C@@H]3C[C@@H](OC(=O)NCCN)CN3C(=O)[C@@H]1C2 [Example 66] (cyclo([Hyp]([CO-Ethylenediamine])[hPhe][dW][Ala(piperidin-4-yl)]Y(Bn)[X8]))	>	10000
COc1ccc(C[C@@H]2NC(=O)[C@H](Cc3ccc(OCc4ccccc4)cc3)NC(=O)[C@H](CC3CCNCC3)NC(=O)[C@@H](Cc3c[nH]c4ccccc34)NC(=O)[C@@H](CCc3ccccc3)NC(=O)[C@@H]3C[C@@H](OC(=O)NCCN)CN3C2=O)cc1 [Example 55] (cyclo([Hyp]([CO-Ethylenediamine])[d(hPhe)][dW][Ala(piperidin-4-yl)]Y(Bn)Y(Me)))	>	10000
O=C1N[C@@H](Cc2ccc(OCc3ccccc3)cc2)C(=O)N[C@@H](Cc2cccnc2)C(=O)N2C[C@H](Oc3ccncc3)C[C@H]2C(=O)N[C@H](CCc2ccccc2)C(=O)N[C@@H](Cc2c[nH]c3ccccc23)C(=O)N[C@H]1CC1CCNCC1 [Example 24] (cyclo([3Pal][X2][d(hPhe)]W[Ala(piperidin-4-yl)]Y(Bn)))	>	10000
NCCNC(=O)O[C@@H]1C[C@H]2C(=O)N[C@@H](CCc3ccccc3)C(=O)N[C@H](Cc3c[nH]c4ccccc34)C(=O)N[C@@H](CC3CCNCC3)C(=O)N[C@@H](Cc3ccc(OCc4ccccc4)cc3)C(=O)N[C@@H](Cc3ccccc3)C(=O)N2C1 [Example 28] (cyclo(F[Hyp]([CO-Ethylenediamine])[hPhe][dW][Ala(piperidin-4-yl)]Y(Bn)))	=	7.94
NCCNC(=O)O[C@@H]1C[C@H]2C(=O)N[C@H](CCc3ccccc3)C(=O)N[C@H](Cc3c[nH]c4ccccc34)C(=O)N[C@@H](CC3CCNCC3)C(=O)N[C@@H](Cc3ccc(OCc4ccccc4)cc3)C(=O)N[C@@H](Cc3cccnc3)C(=O)N2C1 [Example 15] (cyclo([3Pal][Hyp]([CO-Ethylenediamine])[d(hPhe)][dW][Ala(piperidin-4-yl)]Y(Bn)))	>	10000
NCCNC(=O)O[C@@H]1C[C@H]2C(=O)N[C@@H](CCc3ccccc3)C(=O)N[C@H](Cc3c[nH]c4ccccc34)C(=O)N[C@@H](CC3CCNCC3)C(=O)N[C@@H](Cc3ccc(OCc4ccccc4)cc3)C(=O)N[C@@H](Cc3cccc(Cl)c3)C(=O)N2C1 [Example 41] (cyclo([Hyp]([CO-Ethylenediamine])[hPhe][dW][Ala(piperidin-4-yl)]Y(Bn)[Phe(3-Cl)]))	=	7.94
NCCNC(=O)O[C@@H]1C[C@H]2C(=O)N[C@@H](CCc3ccccc3)C(=O)N[C@H](Cc3c[nH]c4ccccc34)C(=O)N[C@@H](CC3CCNCC3)C(=O)N[C@@H](Cc3ccc(Oc4ccccc4)cc3)C(=O)N[C@@H](Cc3cccnc3)C(=O)N2C1 [Example 67] (cyclo([3Pal][Hyp]([CO-Ethylenediamine])[hPhe][dW][Ala(piperidin-4-yl)][Tyr(Ph)]))	=	398
NCCNC(=O)O[C@@H]1C[C@H]2C(=O)N[C@@H](c3ccccc3)C(=O)N[C@H](Cc3c[nH]c4ccccc34)C(=O)N[C@@H](CC3CCNCC3)C(=O)N[C@@H](Cc3ccc(OCc4ccccc4)cc3)C(=O)N[C@@H](Cc3ccc(Cl)cc3)C(=O)N2C1 [Example 8] (cyclo([Hyp]([CO-Ethylenediamine])[Phg][dW][Ala(piperidin-4-yl)]Y(Bn)[Phe(4-Cl)]))	=	31.6
O=C1N[C@@H](Cc2ccc(OCc3ccccc3)cc2)C(=O)N[C@@H](Cc2cccnc2)C(=O)N2C[C@H](Oc3ccncc3)C[C@H]2C(=O)N[C@@H](CCc2ccccc2)C(=O)N[C@@H](Cc2c[nH]c3ccccc23)C(=O)N[C@H]1CC1CCNCC1 [Example 23] (cyclo([3Pal][X2][hPhe]W[Ala(piperidin-4-yl)]Y(Bn)))	=	631
NCCNC(=O)O[C@@H]1C[C@H]2C(=O)N[C@@H](CCc3ccccc3)C(=O)N[C@H](Cc3c[nH]c4ccccc34)C(=O)N[C@@H](CN3CCNCC3)C(=O)N[C@@H](Cc3ccc(OCc4ccccc4)cc3)C(=O)N3Cc4ccccc4C[C@H]3C(=O)N2C1 [Example 26] (cyclo([Hyp]([CO-Ethylenediamine])[hPhe][dW][Ala(piperazin-1-yl)]Y(Bn)[Tic]))	=	501
COc1cccc(C[C@@H]2NC(=O)[C@H](Cc3ccc(OCc4ccccc4)cc3)NC(=O)[C@H](CC3CCNCC3)NC(=O)[C@@H](Cc3c[nH]c4ccccc34)NC(=O)[C@H](c3ccccc3)NC(=O)[C@@H]3C[C@@H](OC(=O)NCCN)CN3C2=O)c1 [Example 12] (cyclo([Hyp]([CO-Ethylenediamine])[Phg][dW][Ala(piperidin-4-yl)]Y(Bn)[Phe(3-OMe)]))	=	20

Hello, the source for this data is patent US11987648B2, in case you need it.
